- System: 786-0 renal
- assayRemarks: NCI tumour cell line growth inhibition, 48 h
Provide the reported TGI of each item.
One number for each entry, in µM.

// solved cases for TGI follow
molecule: O=C(Oc1cccc(Cl)c1)c1ccccc1Nc1ccnc(C(F)(F)F)c1
system: 786-0 renal
unitAbbrev: µM
TGI: 11.4
//
molecule: FC(F)(F)c1cc(N(C2c3ccccc3C=Cc3ccccc32)P(Cl)Cl)cc(C(F)(F)F)c1
system: 786-0 renal
unitAbbrev: µM
TGI: 35.5
//
molecule: CN(C)c1ccc(Nc2c3ccccc3nc3ccccc23)cc1
system: 786-0 renal
unitAbbrev: µM
TGI: 3.13

Respectfully, I request TGI for each entry included below.
1. Cc1ccc2nc3ccccc3c(NCc3ccc(Cl)cc3)c2c1
2. CC1CC[C@@]2(OC1)O[C@H]1[C@H](O)[C@H]3[C@@H]4CC[C@H]5C[C@@H](OC6OC(CO)C(OC7OC(CO)C(O)C(OC8OCC(O)C(O)C8O)C7OC7OC(CO)C(O)C(O)C7OC7OC(CO)C(O)C(O)C7O)C(O)C6O)[C@H](O)C[C@]5(C)[C@H]4CC[C@]3(C)[C@H]1[C@@H]2C (some centres undefined)
3. CCOC(=O)/C(C(N)=O)=C(\O)C(=O)/C(Br)=C(\O)c1ccccc1

Reply |
[12.1, 9.37, 29.7]

====

Kindly supply the reported GI50 values for the records listed here.
- System: NCI-H23 lung
- assayRemarks: NCI tumour cell line growth inhibition, 48 h

molecule: COC(=O)c1c2c(c(C)[n+]([O-])c1C)C(=O)C=C(NCc1ccccc1)C2=O
system: NCI-H23 lung
GI50: 632 nM

Quick batch: GI50 for everything below.
1. Cc1cn2c(/C=C3/C(=O)Nc4c3ccc3ccccc43)c(C(F)(F)F)nc2s1
2. CNC(=O)NCC1OC(n2cnc3c(NC(=O)Nc4ccccc4)ncnc32)C(O[Si](C)(C)C(C)(C)C)C1O[Si](C)(C)C(C)(C)C (stereo not given)
3. COc1ccc([C@H](CC(=O)O)N2CCN(CCCc3ccc4c(n3)NCCC4)C2=O)cn1
4. COc1ccc2c(c1)/C(=C\c1ccncc1)C(=O)N2
5. COC(=O)c1cc(-c2ccccc2)[nH]c1N/N=C/c1c(Cl)cccc1Cl
6. CCC(=O)N1C/C(=C/c2ccc(Cl)cc2)C(=O)/C(=C/c2ccc(Cl)cc2)C1
7. OCCCCC#Cc1ccccc1C#Cc1ccc(O)cc1

Reply |
1: 2090 nM; 2: 3170 nM; 3: 892 nM; 4: 12300 nM; 5: 438 nM; 6: 1440 nM; 7: 14300 nM

Below are 2 molecules. Give each one its GI50.
1. Oc1c(C(Nc2ccccc2Br)c2ccccc2)ccc2cccnc12 (stereo not given)
2. COc1ccc(/C=C(/c2ccccc2)[N+](=O)[O-])c(OC)c1

Reply |
1. 3960 nM
2. 1930 nM

====

- Tested on: COLO 205 colon
- assayRemarks: NCI tumour cell line growth inhibition, 48 h; in the data active = GI50 below about 0.43 µM; inactive = the rest
Return exactly one item of True = active, False = inactive

Solved cases below.
compound: COc1ccc([C@H](CC(=O)O)N2CCN(CCCc3ccc4c(n3)NCCC4)C2=O)cn1
system: COLO 205 colon
assignedLabel: False
--
compound: [2H]C([2H])([2H])NC(=O)c1nnc(NC(=O)C2CC2)cc1Nc1cccc(-c2ncn(C)n2)c1OC
system: COLO 205 colon
assignedLabel: False
--
compound: Oc1c(C(Nc2ccccc2Br)c2ccccc2)ccc2cccnc12 (configuration not stated)
system: COLO 205 colon
assignedLabel: False
--
compound: COc1ccc(/C=C(/c2ccccc2)[N+](=O)[O-])c(OC)c1
system: COLO 205 colon
assignedLabel: False
--
compound: COc1ccc(-c2cc(=O)n(-c3nc4ccccc4[nH]3)[nH]2)cc1OC
system: COLO 205 colon
assignedLabel: False

Ask | Query: recorded result category for COc1ccc(C(=O)Cn2c(C(=O)c3ccccc3)nc3ccccc32)cc1 in this test
Reply | False

====

- Tested on: SNB-75 CNS
- assayRemarks: NCI tumour cell line growth inhibition, 48 h
parameter: TGI

compound: CCCn1c(SCCSc2c3ccccc3c(-c3nc(F)nc(F)n3)n2CCC)c2ccccc2c1-c1nc(F)nc(F)n1
TGI: > 100 µM

Hello, I would appreciate it if you could give TGI for each entry below.
1. Oc1c(C(Nc2ccccc2Br)c2ccccc2)ccc2cccnc12 (stereo unspecified)
2. O=C(O)CCC(=O)OCN1C(=O)C2C3C=CC(C2C1=O)C1C2C(=O)N(COC(=O)CCC(=O)O)C(=O)C2C31 (stereo unspecified)
3. CC1=CC2C(C(O)CC3(C)C2CC(C)C32OCOC23COCO3)C2(C)C/C(=C/O)C(=O)C=C12 (stereo unspecified)
4. C/C(CC(=O)Nc1cccc(Cl)c1C)=N\NC(N)=S
5. CCc1cccc2c3c([nH]c12)-c1ccccc1NC(=O)C3
6. Cn1cnc(N)c(N=O)c1=O

Reply |
["48.6 µM", "> 100 µM", "3.03 µM", "> 100 µM", "> 100 µM", "> 10 µM"]

Could you report TGI for every entry in the following list?
1. CN(C)c1ccc(Nc2c3ccccc3nc3ccccc23)cc1
2. CCOC(=O)N1C/C(=C\c2ccccc2)C(=O)/C(=C/c2ccccc2)C1
3. C/C=C(\C)C(=O)OC1CC(OC(C)=O)C2(C(=O)OC)COC3C2C1(C)C1C2(C(=O)OC)OCC1(C3O)C1(O)C3CC(C4(O)C=COC4O3)C1(C)O2 (stereo unspecified)
4. COc1ccccc1N=Nc1c(-c2ccccc2)nn(C(=O)CC(=O)Nc2cccc(C)c2)c1-c1ccccc1

Reply |
1: 4.09 µM; 2: 22.4 µM; 3: > 100 µM; 4: 93.5 µM

Below is a list of compounds. For each, state its recorded TGI.
1. Cn1nc2ccc(Nc3cc(=O)[nH]c4ccc5nn(C)nc5c34)cc2n1
2. FC(F)(F)c1cc(N(C2c3ccccc3C=Cc3ccccc32)P(Cl)Cl)cc(C(F)(F)F)c1
3. C#C[C@]1(O)CC[C@H]2[C@@H]3CC=C4c5sc(Nc6cc(F)ccc6F)nc5CC[C@]4(C)[C@H]3CC[C@@]21C
4. O=C1NC(=O)c2ccccc2/C1=C/c1ccc2c(c1)OCO2
5. Fc1ccc(-c2ncn(C3CCNCC3)c2-c2ccnc(Oc3ccc4c(c3)OCO4)n2)cc1
6. Cc1cn2c(/C=C3/C(=O)Nc4c3ccc3ccccc43)c(C(F)(F)F)nc2s1

Reply |
["> 100 µM", "61.7 µM", "2.18 µM", "86.6 µM", "> 25 µM", "> 100 µM"]

Would you mind listing TGI for each of the following compounds?
1. CC(C)N(C(=O)c1cccc(C(=O)N(C(C)C)C(C)C)c1)C(C)C
2. Cc1cn(C2CCC(CO)(CF)O2)c(=O)[nH]c1=O (stereo unspecified)
3. COc1ccc([C@H](CC(=O)O)N2CCN(CCCc3ccc4c(n3)NCCC4)C2=O)cn1

Reply |
1: > 100 µM; 2: > 100 µM; 3: 0.0278 µM

Report TGI for every entry below.
1. Cc1ccc(S(=O)(=O)NC(CCC(=O)NNc2ccccc2)C(=O)NNc2ccccc2)cc1 (stereo unspecified)
2. O=[N+]([O-])c1cccc(/C=N/NC2=CS(=O)(=O)C=C2)c1

Reply |
> 100 µM
> 100 µM

For every record below, what is its TGI?
1. O=C(CCN1CCOCC1)/C(=C/c1ccccc1)c1ccccc1
2. COc1ccc(C(=O)Cn2c(C(=O)c3ccccc3)nc3ccccc32)cc1

Reply |
1: 21.8 µM; 2: > 100 µM

List the reported TGI of each compound below.
1. O=C(CCN1CCCC1)Nc1ccc2c(NCc3ccccc3)c3ccccc3nc2c1
2. NCCCN(CCCCN(CCCN)C(=O)OCc1ccccc1)C(=O)OCc1ccccc1
3. Cc1cc(-n2nnc(C(=O)O)c2-c2ccccc2)c2ccc(Cl)cc2n1
4. O=C(NCCN1CCOCC1)OCc1nc2nc(Cl)nc(N3CCOCC3)c2[nH]1

Reply |
1.7 µM
> 100 µM
> 100 µM
> 100 µM

Give TGI for all compounds that follow.
1. CCC[CH2][Sn]([CH2]CCC)([O]C(=O)c1cc(OC)c(OC)cc1OC)[O][Sn]([CH2]CCC)([CH2]CCC)[O]C(=O)c1cc(OC)c(OC)cc1OC
2. CCn1c(=O)c2nc(SC)sc2n(-c2ccc(C)cc2)c1=O
3. O=C(/C(=C(/O)c1ccccc1)c1nc2ccccc2sc1=O)c1ccccc1
4. O=c1cc(-c2ccccn2)[nH]c2cccc(F)c12
5. COc1cc2cc(C(=O)N3CC(COS(C)(=O)=O)c4ccc(NC(=O)OCc5ccccc5)cc43)[nH]c2c(OC)c1OC (stereo unspecified)
6. NC(=N\N=C/c1ccc(O)cc1)/C(N)=N\N=C/c1ccc(O)cc1

Reply |
["0.7 µM", "> 95.1 µM", "> 100 µM", "> 100 µM", "> 100 µM", "43.3 µM"]

Taken from PubChem BioAssay (NCI).
